Sourced from ChEMBL document CHEMBL4513216

procedureSummary: Toxicity liver stage against HepG2, at 10uM
Type: cell-based
Set-up: test concentration 10 uM, cell line HepG2-A16-CD81EGFP
cond: human, HepG2-A16-CD81EGFP cells; read-out: INHIBITION
Reported cytotoxicity at 10 µM values for a set of compounds
outcomeMeasure: cytotoxicity at 10 µM (%)

1. CC(C)c1csc(C(=O)N2CCCC(Cn3cc(CO)nn3)C2)n1 (stereo unspecified)    6.29
2. O=C(Nc1ccc(-c2csnn2)cc1)N1CCC(N2CCCC2)C1 (stereo unspecified)    -8.79
3. Cc1ncc(-c2ccnc(N3CCC[C@@H]3CO)n2)c(-c2cccnc2)n1    -8.49
4. Cc1ncc(CN(C)C(=O)c2ccc(N3CCOCC3)c(F)c2)s1    5.66
5. CC(=O)C(Cc1ccccc1)NC(=O)CSc1nncn1C (stereo unspecified)    3.16
6. COC(=O)c1cc(NC(=O)CCc2cscn2)ccc1C    -0.172
7. N#Cc1ccc(NC2CCN(c3ncccn3)CC2)cc1Cl    8.8
8. O=C1OCCN1CCNCC1(O)CCCN(CCC2CCCCC2)C1=O (stereo unspecified)    -0.615
9. CN(CC(=O)NC(N)=O)CC1(c2ccc(Br)cc2)CC1    0.913
10. CN(C)C(=O)[C@@H]1C[C@@H]2CCN(Cc3nccs3)C[C@@H]2O1    2.67
11. Nc1nccnc1C(=O)N(Cc1ccccc1O)CC1CCCO1 (stereo unspecified)    -4.45

---

procedureSummary: Toxicity liver stage against HepG2, at 10uM
Assay type: cell-based
Set-up: test concentration 10 uM, cell line HepG2-A16-CD81EGFP
cond: human, HepG2-A16-CD81EGFP cells; read-out: INHIBITION
This section presents molecules with their documented cytotoxicity at 10 µM values.
outcomeMeasure: cytotoxicity at 10 µM (%)

1) Nc1cc2c(nn1)CCN(C(=O)Cc1ccc3c(c1)CCO3)C2    5.52
2) CC(C)CN1CCn2nc(CNc3ncnc4[nH]cnc34)cc2C1    6.88
3) CN(C)CC1COCCN1C(=O)c1ccccc1C(=O)c1ccccc1 (configuration not stated)    1.12
4) c1csc(-c2noc(CNCCn3cccn3)n2)c1    -8.21
5) CC(C)NC(=O)N1CCOC2(CNC2)C1    -0.479
6) CS(=O)(=O)N1CCN(C(=O)Cn2ccc3c(Cl)cccc32)CC1    20.6
7) Cc1nn(C)c(C)c1C1CCCN1Cc1cn2ccsc2n1 (configuration not stated)    -51.6
8) c1ccc(-c2cc(CNCCN3CCCC3)c3nnnn3c2)cc1    -17.4
9) CCc1ccc(C(=O)N2CCCC(CNS(C)(=O)=O)C2)o1 (configuration not stated)    -19.7
10) Cn1cnnc1S(=O)(=O)C1CCN(C(=O)c2ccco2)CC1    -2.28
11) CCCc1nc(C(C)(C)NC(=O)C2CC(=O)N(C3CCCC3)C2)no1 (configuration not stated)    -0.734
12) Cc1ccn(CCC(=O)NCc2ccco2)n1    5.94

---

procedureSummary: Toxicity liver stage against HepG2, at 10uM
Format: cell-based
Parameters: test concentration 10 uM, cell line HepG2-A16-CD81EGFP
cond: human, HepG2-A16-CD81EGFP cells; read-out: INHIBITION
outcomeMeasure: cytotoxicity at 10 µM (%)

1) CCc1nnc(NC(=O)c2c3c(nn2C2CCS(=O)(=O)C2)CCC3)s1 (centres undefined)    -4.28
2) CC(C)COC(=O)N1CCCN(C(C)c2nnc(CC(C)C)o2)CC1 (centres undefined)    8.69
3) Cn1cc(CN2CCC3(CC2)CN(c2cccnc2)C(=O)CO3)cn1    -103
4) O=C(CCc1cc(Cl)no1)N1CCC(c2cc3ncccc3cn2)CC1    4.76
5) Cc1ccccc1C(=O)N1CC[C@@H](N(C)C)[C@@H]1Cc1cnn(C)c1    -71
6) CC(c1ncc(-c2ccccc2)o1)N1CCN(C(=O)N(C)C)CC1 (centres undefined)    -12.1
7) Cn1cc(CN2C[C@@H]3CN(C(=O)c4cccn4C)CCO[C@@H]3C2)cn1    -110
8) Oc1ccc(Cl)cc1CNCc1ccccc1C(F)(F)F    2.67
9) Cc1nc(Nc2nncs2)cc(C2CCCN2)n1 (centres undefined)    -1.03
10) CC[C@H]1N(CC2CCOCC2)CCC[C@]12CCC(=O)N2    8.71
11) CCn1cnnc1C1CCN(C(=O)CCCOc2ccccc2)CC1    0.927
12) CN1CCC(NC(=O)Nc2ccc(F)c(-n3cccc3)c2)C1=O (centres undefined)    -135
13) COc1nccnc1-c1cc(NC2CCNCC2)nc2[nH]ccc12    -10.7
14) Cc1ccc(CC(=O)Nc2cc(C(C)C)n[nH]2)cn1    -1.71
15) CCn1c(C)nnc1Sc1nn2cc(C)nc2s1    -1.99
16) Cc1ncsc1C(=O)NC1CCN(Cc2cccc3c2OCCO3)CC1    -4.68
17) O=C(NCC1CCC1)c1ccc(-n2ccnc2)nn1    2.18
18) O=C(c1ccc(C2CCCO2)s1)N1Cc2ccccc2C1 (centres undefined)    -13.4
19) Cc1cc(C)c(C(=O)N(CCO)Cc2ccccc2F)c(=O)[nH]1    -0.626
20) COc1cccc(COCC(=O)NC(C(N)=O)c2ccccc2)c1 (centres undefined)    -3.73
21) CCN1CCC2(CN(C(=O)N(C)C)CC23CCN(CC2CC2)CC3)C1=O (centres undefined)    0.199
22) O=C(NCc1cn2cccnc2n1)C1CC(=O)N(Cc2ccccn2)C1 (centres undefined)    2.69
23) N#Cc1cccnc1NCCNC(=O)NCCSC(F)(F)F    1.2
24) Cc1n[nH]c(C)c1NC(=O)C1CCCN(C(=O)NCC(C)C)C1 (centres undefined)    11

---

procedureSummary: Toxicity liver stage against HepG2, at 10uM
Assay type: cell-based
Design: test concentration 10 uM, cell line HepG2-A16-CD81EGFP
cond: human, HepG2-A16-CD81EGFP cells; read-out: INHIBITION
List of cytotoxicity at 10 µM values.
outcomeMeasure: cytotoxicity at 10 µM (%)

1) CCn1cc2[nH]c(OC)c(CNC(=O)C3CCS(=O)(=O)CC3)cc-2c1=O    4.93
2) Cc1cccc(N(CCC(N)=O)C(=O)c2cc(-n3cccn3)ccn2)c1    -1.5
3) Cc1ccc(C#N)c(N2CCC(c3nccn3Cc3cscn3)CC2)n1    -6.96
4) CCC(NC(=O)NCc1cccc(N(C)C)n1)c1ccccc1OC (stereo unspecified)    29.1
5) N#CC1(NC(=O)c2nccc3ccccc23)CCC1    6.13
6) COC(=O)N1CCCC(C(=O)Nc2ccccc2CN2CCCC2)C1 (stereo unspecified)    -9.07
7) O=c1c2sccc2nc2n1CCN(Cc1ccccc1C(F)(F)F)CC2    -9.31
8) Cc1nc(C2(NCc3c(C)nn(C)c3N3CCOCC3)CCC2)no1    4.98
9) CN(Cc1ccoc1)C(=O)C1CCN(C(=O)C2CCCC2)CC1    -7.77
10) O=C(CO)N1C[C@H]2CN(Cc3cccc(F)c3)C(=O)[C@H]2C1    -82.3
11) CCNC(=O)NC1CCCN(c2ccc(C)cc2)C1=O (stereo unspecified)    0.732

---

# maps each entry to its cytotoxicity at 10 µM
procedureSummary: Toxicity liver stage against HepG2, at 10uM
Format: cell-based
Parameters: test concentration 10 uM, cell line HepG2-A16-CD81EGFP
cond: human, HepG2-A16-CD81EGFP cells; read-out: INHIBITION
outcomeMeasure: cytotoxicity at 10 µM (%)

1) c1cnc(N2CCC(C3CCN(CCCn4cccn4)C3)CC2)nc1 (configuration not stated)    7.5
2) COC(=O)[C@@H](NC(=O)c1coc(COc2cccc(F)c2)n1)C(C)C    -142
3) O=C(CN1CCCC(c2ccn[nH]2)C1)Nc1nncs1 (configuration not stated)    -43.9
4) CNC(=O)C1CCCCN1C(=O)c1csc(-c2ccccc2)n1 (configuration not stated)    2
5) O=C(Nc1nncs1)N(Cc1cccc(O)c1)C1CC1    4.14
6) CCCn1cc(C(=O)N(C)Cc2nc(-c3ccccn3)no2)c(C)n1    0.334
7) Cn1cccc1C(=O)NCc1cnc2n1CCN(CC1CCOCC1)C2    -105
8) O=C(NCC1CCCO1)c1csc(Cc2ccccc2)n1 (configuration not stated)    -110
9) Cn1c(=O)ccn(CC(=O)Nc2cnccc2O)c1=O    2.13
10) COc1cc(NC(=O)N2CCCC2c2nncn2C)ccc1Br (configuration not stated)    5.67
11) COc1ccc(OCCN(C)c2cc(C)nc(N)n2)cc1    49.5
12) c1cnn(CC2CCCCN2c2ncnc3sccc23)c1 (configuration not stated)    9.48
